# system-tested: hNaV1.7 (Homo sapiens, UniProt Q15858)
# Construct: expressed in transfected cells; host or cells: HEK293
# Sequence (Q15858 whole entry): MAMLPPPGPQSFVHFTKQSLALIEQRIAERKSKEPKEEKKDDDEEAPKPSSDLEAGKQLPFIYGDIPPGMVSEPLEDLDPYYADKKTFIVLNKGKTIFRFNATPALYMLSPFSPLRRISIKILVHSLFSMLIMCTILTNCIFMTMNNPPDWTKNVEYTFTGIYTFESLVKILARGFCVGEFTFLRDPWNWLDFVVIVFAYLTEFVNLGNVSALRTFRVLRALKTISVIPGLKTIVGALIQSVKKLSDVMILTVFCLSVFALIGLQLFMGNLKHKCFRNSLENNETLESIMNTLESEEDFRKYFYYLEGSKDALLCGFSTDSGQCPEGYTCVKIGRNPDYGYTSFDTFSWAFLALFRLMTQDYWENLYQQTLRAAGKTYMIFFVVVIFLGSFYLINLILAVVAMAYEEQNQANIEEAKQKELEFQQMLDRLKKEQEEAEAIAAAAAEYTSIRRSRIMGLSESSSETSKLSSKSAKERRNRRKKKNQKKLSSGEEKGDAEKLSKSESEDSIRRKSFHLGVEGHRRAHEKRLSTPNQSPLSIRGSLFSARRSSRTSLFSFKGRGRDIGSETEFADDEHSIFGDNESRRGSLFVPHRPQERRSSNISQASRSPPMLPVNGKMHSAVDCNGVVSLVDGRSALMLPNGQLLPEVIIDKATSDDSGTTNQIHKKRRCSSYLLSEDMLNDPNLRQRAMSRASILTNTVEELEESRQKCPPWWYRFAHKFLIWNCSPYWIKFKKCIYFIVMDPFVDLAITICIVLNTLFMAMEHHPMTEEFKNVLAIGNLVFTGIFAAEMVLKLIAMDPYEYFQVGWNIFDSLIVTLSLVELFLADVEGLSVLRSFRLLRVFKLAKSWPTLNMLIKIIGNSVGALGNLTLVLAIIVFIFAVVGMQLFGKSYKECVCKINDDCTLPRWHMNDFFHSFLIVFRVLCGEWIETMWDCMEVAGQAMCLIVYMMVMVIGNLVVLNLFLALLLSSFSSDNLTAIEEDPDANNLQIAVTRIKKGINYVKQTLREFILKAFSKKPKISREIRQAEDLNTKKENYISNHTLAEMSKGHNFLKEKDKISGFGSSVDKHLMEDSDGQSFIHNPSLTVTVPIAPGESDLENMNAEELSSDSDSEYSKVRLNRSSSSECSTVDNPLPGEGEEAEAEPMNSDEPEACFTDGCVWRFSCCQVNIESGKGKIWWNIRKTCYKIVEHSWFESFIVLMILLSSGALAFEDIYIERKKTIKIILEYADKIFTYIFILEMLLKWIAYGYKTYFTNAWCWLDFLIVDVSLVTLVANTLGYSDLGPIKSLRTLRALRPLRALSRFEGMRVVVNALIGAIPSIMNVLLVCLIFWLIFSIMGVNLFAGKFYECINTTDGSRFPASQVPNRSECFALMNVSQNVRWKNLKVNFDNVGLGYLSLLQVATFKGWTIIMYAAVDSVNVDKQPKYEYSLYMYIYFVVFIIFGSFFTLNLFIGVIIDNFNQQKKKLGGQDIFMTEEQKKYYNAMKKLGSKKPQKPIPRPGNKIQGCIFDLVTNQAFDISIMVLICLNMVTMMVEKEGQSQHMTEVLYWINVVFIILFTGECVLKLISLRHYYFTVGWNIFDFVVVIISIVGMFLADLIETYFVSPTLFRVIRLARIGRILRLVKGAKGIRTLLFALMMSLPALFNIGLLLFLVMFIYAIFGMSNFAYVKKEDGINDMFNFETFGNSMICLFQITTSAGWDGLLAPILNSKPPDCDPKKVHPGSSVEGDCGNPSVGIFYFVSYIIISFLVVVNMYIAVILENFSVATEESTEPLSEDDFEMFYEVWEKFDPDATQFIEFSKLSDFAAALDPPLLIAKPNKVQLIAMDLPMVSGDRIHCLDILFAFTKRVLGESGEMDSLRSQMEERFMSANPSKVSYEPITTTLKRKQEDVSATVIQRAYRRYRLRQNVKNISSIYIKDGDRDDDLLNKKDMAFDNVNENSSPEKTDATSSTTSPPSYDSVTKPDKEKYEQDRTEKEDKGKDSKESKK
# assay-name: QPatch NaV1.7 assay (whole-cell patch clamp, QPatch16x)
# Type: cell-based
# setup-conditions: holding voltage V1/2 SSI (half of channels inactivated), HEK293-hNaV1.7 cells, read-out: QP Nav1.7 SSI vhalf pIC50 (converted)
Counter-ions that a name gives are not always drawn.
outcome-measure: IC50 (µM)

[[record]]
molecule = "Cc1cc(-c2ccc(C(F)(F)F)cc2)cc([C@H]2CC[C@]3(CCNC3=O)N2)n1 [Example 96, hydrochloride]"
system_tested = "hNaV1.7 (Homo sapiens, UniProt Q15858)"
outcome_measure = "IC50"
reported_value = 3.16

[[record]]
molecule = "CN1CCC[C@@]2(CC[C@H](c3cc(-c4ccc(C(F)(F)F)cc4)ccn3)N2)C1=O [Example 67, hydrochloride]"
system_tested = "hNaV1.7 (Homo sapiens, UniProt Q15858)"
outcome_measure = "IC50"
reported_value = 3.98

[[record]]
molecule = "COc1cccc(-c2ccnc([C@H]3CC[C@@]4(CCN(C)C4=O)N3)c2)c1Cl [Example 80, hydrochloride]"
system_tested = "hNaV1.7 (Homo sapiens, UniProt Q15858)"
outcome_measure = "IC50"
reported_value = 200

[[record]]
molecule = "CN1CC[C@@]2(CC(F)C(c3cc(-c4ccc(C(F)(F)F)cc4)ccn3)N2)C1=O (single isomer, unassigned) [Example 238, hydrochloride]"
system_tested = "hNaV1.7 (Homo sapiens, UniProt Q15858)"
outcome_measure = "IC50"
reported_value = 2

[[record]]
molecule = "O=C1NCC[C@@]12CC[C@@H](c1cc(-c3ccc(C(F)(F)F)cc3F)ccn1)N2 [Example 38, hydrochloride]"
system_tested = "hNaV1.7 (Homo sapiens, UniProt Q15858)"
outcome_measure = "IC50"
reported_value = 7.94


[P] CN1CC[C@@]2(CC[C@H](c3cc(-c4cc(-c5cnn(C)c5)ccc4F)ccn3)N2)C1=O [Example 191, hydrochloride]
[Q] COCc1ccc(F)c(-c2ccnc([C@H]3CC[C@@]4(CCN(C)C4=O)N3)c2)c1 [Example 188, hydrochloride]
Req: Rank P against Q by their IC50 values and give the higher one. Your answer should be the label attached to the chosen record.
Resp: Q
(Q: 100 µM, P: 25.1 µM)

[a] CN1CCC[C@@]2(CC[C@H](c3cc(-c4ccc(F)cc4)ccn3)N2)C1=O [Example 71, hydrochloride]
[b] CN1CCC[C@@]2(CC[C@@H](c3cc(-c4ccc(C(F)(F)F)cc4)ccn3)N2)C1=O [Example 68, hydrochloride]
Req: Given the listed items, does a or b have the lesser reported IC50? Indicate which entry you chose by stating its label.
Resp: b
(b: 5.01 µM, a: 20 µM)

----------
# system-tested: hNaV1.7 (Homo sapiens)
# Construct: expressed in transfected cells; host or cells: HEK293
# assay-name: QPatch NaV1.7 assay (whole-cell patch clamp, QPatch16x)
# Assay type: cell-based
# setup-conditions: holding voltage −90 mV (most channels closed), HEK293-hNaV1.7 cells, read-out: QP Nav1.7 −90 mV pIC50 (converted)
# Experimental: The compounds of the invention were tested in a QPatch NaV1.7 assay. HEK293-hNaV1.7 cells were grown in DMEM-F12+10% FBS culture media at 37° C. At a confluency of 50-70% cells were dissociated from culture flasks & triturated to ensure unicellular cell suspension; cell density was measured & adjusted to 2-3×10^6 cells/ml. Recordings were obtained using QPatch16x. The external solution was (in mM): NaCl, 128; KCl, 5; MgCl2, 2; CaCl2, 2; Glucose, 30; HEPES, 15; pH 7.3, 305-315 mOsm. […]
Structures can show the parent of a compound that is named as a salt.
outcome-measure: IC50 (µM)

Check out these entries, answers already filled in.
[[record]]
molecule = "CCOc1ccc(F)c(-c2ccnc([C@@H]3CC[C@]4(CCN(C)C4=O)N3)c2)c1 [Example 145, hydrochloride]"
reported_value = 79.4

[[record]]
molecule = "O=C1NCC[C@]12CC[C@H](c1cc(-c3cccc(OC(F)(F)F)c3)ccn1)N2 [Example 117, hydrochloride]"
reported_value = 7.94


[a] O=C1NCC[C@@]12CC[C@H](c1cc(-c3cccc(OC(F)(F)F)c3)ccn1)N2 [Example 118, hydrochloride]
[b] CCn1cc2cc(F)c(-c3ccnc([C@H]4CC[C@@]5(CCN(C)C5=O)N4)c3)cc2n1 [Example 259, hydrochloride]
[c] CC(C)CCn1cc(-c2ccnc([C@H]3CC[C@@]4(CCN(C)C4=O)N3)c2)cn1 [Example 170, hydrochloride]
Req: Rank order required: IC50, descending. Output spec: labels arranged per the requested ranking.
Resp: c, b, a
(c: 398 µM, b: 158 µM, a: 50.1 µM)
